So I've got a bunch of compounds here, and I need their log10 of IC50 values.
biological target: AC8 (Homo sapiens); experiment: Adenylyl cyclase cAMP accumulation assay, HEK-ACA3/6 cells overexpressing human AC8; assay type: cell-based; design: expressed in transfected cells; host or cells: HEK-ACA3/6 cells (so in the source) overexpressing human AC8; details: Table 2; 3 μM A23187 + 0.5 mM IBMX, HTRF cAMP; read-out: AC8 IC50 (μM) ± SEM
Sequence (P40145 whole entry): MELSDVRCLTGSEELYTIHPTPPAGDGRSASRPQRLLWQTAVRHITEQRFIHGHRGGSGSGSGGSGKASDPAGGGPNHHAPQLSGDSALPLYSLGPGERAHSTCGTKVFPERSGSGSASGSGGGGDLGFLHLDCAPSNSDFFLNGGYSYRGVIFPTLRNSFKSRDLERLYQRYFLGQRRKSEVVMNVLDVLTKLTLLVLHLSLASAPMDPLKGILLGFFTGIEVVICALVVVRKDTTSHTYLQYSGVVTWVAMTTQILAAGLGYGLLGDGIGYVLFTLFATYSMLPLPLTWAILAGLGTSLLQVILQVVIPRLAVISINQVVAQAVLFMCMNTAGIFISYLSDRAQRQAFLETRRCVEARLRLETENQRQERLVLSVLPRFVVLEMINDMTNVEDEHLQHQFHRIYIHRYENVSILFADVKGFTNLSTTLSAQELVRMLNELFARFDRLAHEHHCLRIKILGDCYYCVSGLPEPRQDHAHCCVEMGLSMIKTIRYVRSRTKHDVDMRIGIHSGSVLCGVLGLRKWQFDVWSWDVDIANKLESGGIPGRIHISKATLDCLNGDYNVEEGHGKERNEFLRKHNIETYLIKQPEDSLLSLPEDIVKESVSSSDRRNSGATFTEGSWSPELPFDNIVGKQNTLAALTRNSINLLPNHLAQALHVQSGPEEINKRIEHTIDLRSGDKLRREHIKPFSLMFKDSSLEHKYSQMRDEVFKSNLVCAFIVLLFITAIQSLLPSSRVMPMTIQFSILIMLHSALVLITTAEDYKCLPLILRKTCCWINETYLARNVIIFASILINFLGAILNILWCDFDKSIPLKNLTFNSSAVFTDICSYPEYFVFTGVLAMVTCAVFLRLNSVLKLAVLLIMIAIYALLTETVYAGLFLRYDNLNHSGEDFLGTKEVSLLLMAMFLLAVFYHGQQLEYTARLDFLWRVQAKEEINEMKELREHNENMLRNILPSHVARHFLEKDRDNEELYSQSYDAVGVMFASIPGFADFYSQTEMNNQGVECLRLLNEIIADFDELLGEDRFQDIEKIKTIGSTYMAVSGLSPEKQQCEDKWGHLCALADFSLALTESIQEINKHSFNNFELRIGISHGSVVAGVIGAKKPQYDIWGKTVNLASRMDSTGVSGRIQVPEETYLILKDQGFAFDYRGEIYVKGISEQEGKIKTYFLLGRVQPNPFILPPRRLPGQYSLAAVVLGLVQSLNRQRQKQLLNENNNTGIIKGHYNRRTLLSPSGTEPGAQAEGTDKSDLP
Values are log10 of IC50 in µM.

Prompt: Consider the compound shown here: Cc1cccc(CNc2cc(C)nn2-c2nc3c(c(=O)[nH]2)CCC3)c1 [AC10115A] What is its recorded log10 of IC50?
Completion: 1.03

Prompt: I'd like to know its log10 of IC50. The compound in question is Cc1cc(=O)[nH]c(-n2nc(C)cc2NCc2ccc(Cl)cc2)n1 [AC10111A]
Completion: 1.50

Prompt: I'd like to know its log10 of IC50. The compound in question is CCc1cc(=O)[nH]c(-n2nc(-c3ccccc3)cc2NCc2ccc(OC)cc2)n1 [AC10112A]
Completion: 1.66

Prompt: Endpoint output: log10 of IC50 of CCc1cc(=O)[nH]c(-n2nc(C)cc2NCc2ccc(C(=O)c3ccccc3)cc2)n1 [AC10144A] . Value?
Completion: 0.30

Prompt: Sample Cc1cccc(CNc2cc(C)nn2-c2nccc(=O)[nH]2)c1 [AC10116A] — what was its log10 of IC50?
Completion: 0.92

Prompt: Which value of log10 of IC50 has been reported for Cc1cc(NCc2ccc(Cl)cc2)n(-c2nc3c(c(=O)[nH]2)CCC3)n1 [AC10110A] in the records?
Completion: 1.77
